tested on: MvaT; assay: PBM 8-mer E-score (mean of HK and ME arrays) (E-score (dimensionless, -0.5 to 0.5)); higher = stronger relative binding preference
The full ranking holds about 33,000 sequences; the median of “E-score (dimensionless, -0.5 to 0.5)” is about -0.058, and the highest 2% start at about 0.35. Shown is part of a subset that was picked to be rich in the highest values.
measured property: PBM 8-mer E-score

[[record]]
residue_sequence = "ATTGCACG"
data_value = 0.182

[[record]]
residue_sequence = "AACTAGTT"
data_value = 0.392

[[record]]
residue_sequence = "AACTAAAG"
data_value = 0.202

[[record]]
residue_sequence = "ACTATATG"
data_value = 0.306

[[record]]
residue_sequence = "AATATCCC"
data_value = 0.174

[[record]]
residue_sequence = "CCCGGGGA"
data_value = -0.299

[[record]]
residue_sequence = "AACTAATA"
data_value = 0.323

[[record]]
residue_sequence = "CAGTTGCG"
data_value = -0.0888

[[record]]
residue_sequence = "ACTGCGAG"
data_value = -0.0652

[[record]]
residue_sequence = "GCAGGCGC"
data_value = -0.28

[[record]]
residue_sequence = "GATATCAC"
data_value = 0.119

[[record]]
residue_sequence = "AATATCTG"
data_value = 0.207

[[record]]
residue_sequence = "AAATAGTC"
data_value = 0.235

[[record]]
residue_sequence = "AATATCAA"
data_value = 0.338

[[record]]
residue_sequence = "CCGGCTAC"
data_value = -0.217

[[record]]
residue_sequence = "AACTAAAA"
data_value = 0.345

[[record]]
residue_sequence = "AAATAGTG"
data_value = 0.136

[[record]]
residue_sequence = "AGGAACCT"
data_value = -0.139

[[record]]
residue_sequence = "AACTAATG"
data_value = 0.312

[[record]]
residue_sequence = "CTCCCTAC"
data_value = -0.109

[[record]]
residue_sequence = "AGCTCCCG"
data_value = -0.29

[[record]]
residue_sequence = "AATATCTC"
data_value = 0.253

